Target: recombinant autotaxin (Homo sapiens)
Test: Autotaxin test (enzyme test), Amplex Red fluorescence with LPC substrate
Conditions: autotaxin inhibition (enzyme test)
compounds and their reported IC50

Completed entries (count: 8):
COMPOUND: Cc1ccc(-c2ccc3c(c2)C(=O)N2CCN(C(=O)CC(C)(C)C)CC2C(=O)N3)cc1 (centres unmarked) [Compound A105]
MEASURE NAME: IC50
VAL: > 1 µM
--
COMPOUND: O=C1Nc2ccc(-c3ccc(Cl)cc3)cc2C(=O)N2CCN(C(=O)c3c(C(F)(F)F)nc4ccccn34)CC12 (centres unmarked) [Compound A72]
MEASURE NAME: IC50
VAL: > 1 µM
--
COMPOUND: CS(=O)(=O)CC(=O)N1CCN2C(=O)c3cc(-c4ccc(Cl)cc4)ccc3NC(=O)C2C1 (centres unmarked) [Compound A22]
MEASURE NAME: IC50
VAL: > 1 µM
--
COMPOUND: O=C1Nc2ccc(-c3ccc(Cl)cc3F)cc2C(=O)N2CCN(C(=O)[C@@H]3CCCN3C3CCCNC3)C[C@H]12 (some centres unmarked) [Compound A123]
MEASURE NAME: IC50
VAL: 0.1 to 1 µM
--
COMPOUND: CC(C)(C)CC(=O)N1CCN2C(=O)c3cc(-c4cc(F)c(F)cc4F)ccc3NC(=O)C2C1 (centres unmarked) [Compound A92]
MEASURE NAME: IC50
VAL: > 1 µM
--
COMPOUND: O=C([C@@H]1CCCN1C1CCNCC1)N1CCN2C(=O)c3cc(-c4ccc(Cl)cc4F)ccc3N(CCC3CCNCC3)C(=O)[C@@H]2C1 [Compound A164]
MEASURE NAME: IC50
VAL: > 1 µM
--
COMPOUND: CN1CCN(C(=O)CN2C(=O)C3CN(C(=O)CC(C)(C)C)CCN3C(=O)c3cc(-c4ccc(Cl)cc4F)ccc32)CC1 (centres unmarked) [Compound A144]
MEASURE NAME: IC50
VAL: > 1 µM
--
COMPOUND: COc1ccc(-c2ccc3c(c2)C(=O)N2CCN(C(=O)CC(C)(C)C)C[C@@H]2C(=O)N3)cc1 [Compound B25]
MEASURE NAME: IC50
VAL: > 1 µM

Now for another entry.
Challenge: Quick check: IC50 on recombinant autotaxin (Homo sapiens), item O=C1Nc2ccc(-c3ccc(Cl)cc3)cc2C(=O)N2CCN(C(=O)C3(c4ccc(Cl)cc4)CC3)CC12 (centres unmarked) [Compound A47] ?
Response given: > 1 µM

* * *

IC50 reference
Target: recombinant autotaxin (Homo sapiens)
Experiment: Autotaxin test (enzyme test), Amplex Red fluorescence with LPC substrate
Conditions: autotaxin inhibition (enzyme test)

MOLECULE: CC(C)(C)CC(=O)N1CCN2C(=O)c3cc(-c4ccc(Cl)cc4F)ccc3N(CCC3CCNCC3)C(=O)C2C1 (stereo not drawn)
IC50: > 1000 nM
//
MOLECULE: O=C1Nc2ccc(-c3ccccc3F)cc2C(=O)N2CCN(C(=O)[C@@H]3CSCN3)C[C@@H]12
IC50: > 1000 nM
//
MOLECULE: CN(C)CCN1C(=O)C2CN(C(=O)CC(C)(C)C)CCN2C(=O)c2cc(-c3ccc(Cl)cc3)ccc21 (stereo not drawn)
IC50: > 1000 nM
//
MOLECULE: CC(C)(C(=O)N1CCN2C(=O)c3cc(-c4ccc(Cl)cc4)ccc3NC(=O)C2C1)c1ccccc1 (stereo not drawn)
IC50: > 1000 nM
//
MOLECULE: CC(C)(C)CC(=O)N1CCN2C(=O)c3cc(-c4ccc(F)cc4F)ccc3NC(=O)C2C1 (stereo not drawn)
IC50: > 1000 nM
//
MOLECULE: CN(C)CCN1C(=O)[C@H]2CN(C(=O)[C@@H]3CCCN3C3CCNCC3)CCN2C(=O)c2cc(-c3ccc(Cl)cc3F)ccc21
IC50: 100 to 1000 nM

Challenge: Please report the recorded IC50 for Cn1cc(CCC(=O)N2CCN3C(=O)c4cc(-c5ccc(Cl)cc5F)ccc4NC(=O)C3C2)cn1 (stereo not drawn) .
Response given: > 1000 nM

Challenge: Similarly, CC(C)(C)CC(=O)N1CCN2C(=O)c3cc(-c4ccc(Cl)cc4F)ccc3N(CCN3CCOCC3)C(=O)[C@@H]2C1 ?
Response given: 100 to 1000 nM

Challenge: Same lookup for CC(C)(C)CC(=O)N1CCN2C(=O)c3cc(-c4ccccc4F)ccc3NC(=O)[C@@H]2C1 , please.
Response given: 100 to 1000 nM

Challenge: Another: CC(C)(C)CC(=O)N1CCN2Cc3cc(-c4ccccc4F)ccc3NC(=O)C2C1 (stereo not drawn)
Response given: > 1000 nM

Challenge: Okay, and CC(C)(C)CC(=O)N1CCN2C(=O)c3cc(-c4ccc(Cl)cc4F)ccc3N(CCO)C(=O)[C@H]2C1 ?
Response given: 100 to 1000 nM

Challenge: Another molecule: O=C1Nc2ccc(-c3ccc(Cl)cc3F)cc2C(=O)N2CCN(C(=O)Cc3ccccc3)CC12 (stereo not drawn)
Response given: > 1000 nM
